biological target: Solute carrier family 2, facilitated glucose transporter member 1 (Homo sapiens) (UniProt P11166); test: ST_JUDE_LEISH: Cytotoxicity at 2uM final concentration against transgenic Leishmania Mexicana promastigotes LmGLUT1 that are glucose transport deficient and complemented with the human glucose transporter GLUT1. Activity is measured by DNA content using SYBR green in vitro; format: functional
Sequence (P11166 whole entry): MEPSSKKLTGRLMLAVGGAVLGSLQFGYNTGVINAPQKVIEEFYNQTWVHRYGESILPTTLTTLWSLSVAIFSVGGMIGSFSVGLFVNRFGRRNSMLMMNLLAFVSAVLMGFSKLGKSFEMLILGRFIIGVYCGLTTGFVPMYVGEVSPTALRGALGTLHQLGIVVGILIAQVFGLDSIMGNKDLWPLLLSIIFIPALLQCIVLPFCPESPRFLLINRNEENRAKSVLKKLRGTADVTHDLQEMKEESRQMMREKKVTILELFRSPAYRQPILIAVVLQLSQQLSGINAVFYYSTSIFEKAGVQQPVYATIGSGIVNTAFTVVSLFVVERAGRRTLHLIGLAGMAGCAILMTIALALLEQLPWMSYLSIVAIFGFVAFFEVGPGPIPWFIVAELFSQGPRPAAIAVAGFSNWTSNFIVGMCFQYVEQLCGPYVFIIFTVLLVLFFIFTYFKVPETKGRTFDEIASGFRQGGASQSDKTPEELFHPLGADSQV
Each entry below lists one item and its recorded inhibition value.
parameter measured: inhibition (%)

[[record]]
compound = "O=C(/C=C/c1ccc(Cl)c(Cl)c1)NCCCCCN1CCC(NS(=O)(=O)c2cc(Cl)cc(Cl)c2)CC1"
measured_result = 3.59

[[record]]
compound = "COc1ccccc1N1CCN(CCCCNC(=O)c2ccc(NC(=O)c3ccc4ccccc4c3)cc2)CC1"
measured_result = 0.49

[[record]]
compound = "CC[C@H](C)CNC(=O)c1cccc(-c2cccc(CNCC3CNCCCO3)c2)n1 (stereo not given in full)"
measured_result = -0.08

[[record]]
compound = "CC(C)CCn1c(Sc2ccc(C#N)c([N+](=O)[O-])c2)nnc1-c1cccc(Cl)c1"
measured_result = 9.63

[[record]]
compound = "O=C(Cc1ccccc1)NC(CCN1CCC(NC(=O)c2ccc(Cl)cc2)CC1)c1ccc(Cl)c(Cl)c1 (stereo not given)"
measured_result = 2.22

